Values from patent US12421249B2

Target: APOL1 G1 (Homo sapiens, UniProt O14791, I384M/S342G)
Sequence (O14791 28-398 S342G/I384M): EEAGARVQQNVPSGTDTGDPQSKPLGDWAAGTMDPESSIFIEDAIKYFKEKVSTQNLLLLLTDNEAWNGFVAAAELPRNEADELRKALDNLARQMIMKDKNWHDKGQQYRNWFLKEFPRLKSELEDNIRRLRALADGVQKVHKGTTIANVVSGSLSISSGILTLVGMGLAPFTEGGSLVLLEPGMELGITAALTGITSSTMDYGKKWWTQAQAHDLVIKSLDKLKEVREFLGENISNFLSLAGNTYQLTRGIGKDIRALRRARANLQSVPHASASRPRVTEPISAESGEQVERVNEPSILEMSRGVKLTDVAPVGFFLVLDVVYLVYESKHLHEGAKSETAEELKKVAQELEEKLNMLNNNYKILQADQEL
Assay: Trypanosoma brucei brucei Lysis Assay Using APOL1 Recombinant Protein (AlamarBlue viability readout)
Type: cell-based
Conditions: Trypanosome Assay; read-out: Trypanosome Assay Max Activity (%)
ENDPOINT: Emax (%)
Numbers only, in %.

Example compounds with recorded Emax:
{"columns": ["COMPOUND", "Emax / %"],
 "data": [
  ["CCc1cc2c(s1)CCO[C@@]21C[C@@H](c2cnn(CCS(C)(=O)=O)c2)N[C@@H](C)C1 (stereo in doubt)", 111],
  ["C[C@H]1C[C@@]2(C[C@@H](c3ccccn3)N1)OCCc1cc(Cl)sc12 (racemic)", 111]
]}

Record Emax for all entries; do not skip any.
1. Cc1n[nH]c2ncc([C@@H]3C[C@]4(C[C@H](C)N3)OCCc3cc(Cl)sc34)cc12 (racemic)
2. C[C@H]1C[C@@]2(C[C@@H](c3cocn3)N1)OCCc1cc(Cl)sc12 (racemic)
3. CC1CC2(CC(c3cnn(C)n3)N1)OCCc1cc(Cl)sc12 (stereo not drawn)
4. Cc1ncc([C@@H]2C[C@]3(C[C@H](C)N2)OCCc2cc(Cl)sc23)o1 (racemic)

1: 102; 2: 97.5; 3: 112; 4: 104
